The compounds listed here are annotated with their GI50.
# Test system: HCT-15
REPORTED PROPERTY: GI50

                                  structure    result
0  COc1ccc(C(=O)N2CCN(c3ccc4c(c3)OCC(=O)N4)CC2)cc1  > 100 µM
1  CCOC(=O)C(C)(C)Oc1ccc2c(=O)cc(-c3ccc(Cl)cc3)oc2c1  > 100 µM
2             O=C(O)c1c(O)c2cc(Br)ccc2oc1=O  > 100 µM
3  NC(=O)C[C@H](NC(=O)C1(NC(=O)[C@H](Cc2ccc(CP(=O)(O)O)cc2)NC(=O)C(=O)O)CCCCC1)C(=O)NCCCc1cccc2ccccc12   > 10 µM
4                            COCOCC/C=C/C=O  > 100 µM
5  CCOC(=O)c1c(C)n(-c2ccc(Cl)cc2)c2c1cc(O)c1[nH]c3c(c12)CCCC3  > 100 µM

---

# Tested on: OVCAR-8
# TEST DESCRIPTION: NCI tumour cell line growth inhibition, 48 h
Active and inactive are the calls of the source. Rule as the data show it: active = GI50 up to about 1.1 µM and inactive = higher.
REPORTED PROPERTY: GI50

                                    molecule               result
 0        CC(=O)OC(=C(C#N)C#N)c1nccnc1C(C)=O   > 20 µM (inactive)
 1  Cc1cccc(C)c1NC(=O)CCCC(=O)CC(=O)/C=C/c1ccccc1  > 100 µM (inactive)
 2  CCCCC(C(=O)C(=O)NC1C2CC3CC(C2)CC1C3)C(=O)C(C)C (configuration not stated)  > 100 µM (inactive)
 3                  COc1ccccc1NC(=O)CSC(N)=O   68.2 µM (inactive)
 4  COC1=N[C@H](C(C)C)C(OC)=N[C@H]1Cc1ccc(C[C@@H]2N=C(OC)[C@@H](C(C)C)N=C2OC)s1   76.9 µM (inactive)
 5   COC(=O)/C=C\C(C#N)(C#N)/N=C/c1ccc(C)cc1   2.25 µM (inactive)
 6  CC(C)(C)C1(c2ccc(C3(c4ccccc4)Oc4ccccc4S3)[nH]2)Oc2ccccc2S1 (configuration not stated)  > 100 µM (inactive)
 7          OCN(CO)c1ccc2c(c1)Cc1cc(F)ccc1-2   19.7 µM (inactive)
 8     O=C(O)c1ccc(Nc2nc3ccccc3nc2C(=O)O)cc1  > 100 µM (inactive)
 9      O=c1[nH]nc(-c2ccccc2)n1/N=C/c1cccnc1  > 100 µM (inactive)
10  Sc1nnc(-c2ccccc2Nc2ccccc2-c2nnc(S)n2-c2ccccc2)n1-c1ccccc1   72.6 µM (inactive)
11  Oc1ccc2ccccc2c1-c1c(Nc2ccccc2)ccc2ccccc12   16.6 µM (inactive)

---

# Tested on: PC-3
# TEST DESCRIPTION: NCI tumour cell line growth inhibition, 48 h
Active and inactive are the calls of the source. Rule as the data show it: active = GI50 up to about 1.1 µM and inactive = higher.
Listed below: GI50 values for each entry.
REPORTED PROPERTY: GI50

>>> print(df.to_string())
                                   compound               result
0  CCCC(=O)OCC1(CO)C/C(=C/CC(C(C)C)C(C)C)C(=O)O1 (stereo not given)  > 100 µM (inactive)
1  CC[N+]1(C)CCC(O)(/C=C/c2ccc(Cl)cc2)C(C(=O)/C=C/c2ccc(Cl)cc2)C1 (stereo not given)   10.7 µM (inactive)
2     COCCOC(=O)C1=C(O)c2ccccc2S(=O)(=O)N1C  > 100 µM (inactive)
3    O=Cc1ccc(-c2cc(C=O)c(-c3cccs3)[nH]2)s1   35.6 µM (inactive)
4  C=C1CC=CC(C)(C)C1C/C=C(\C)C(O)CBr (stereo not given)   47.6 µM (inactive)

---

# System: SW-620
# TEST DESCRIPTION: NCI tumour cell line growth inhibition, 48 h
Activity calls are given as the source filed them. No stated cut-off is given here; in the data, active = GI50 up to about 1.1 µM and inactive = higher.
Recorded measurements of GI50, one per entry
REPORTED PROPERTY: GI50

MOLECULE	REPORTED PROPERTY	RESULT
CN(C)CC(C)(C)C(=O)/C=C/c1ccccc1	GI50	14.5 µM (inactive)
O=C(O)c1c(O)c2cc(Br)ccc2oc1=O	GI50	> 100 µM (inactive)
O=c1c2nn[nH]c2nc2n1CC(c1ccccc1)S2 (centres undefined)	GI50	> 100 µM (inactive)
Sc1nnc(-c2ccccc2Nc2ccccc2-c2nnc(S)n2-c2ccccc2)n1-c1ccccc1	GI50	26.9 µM (inactive)
CCOC(=O)C(NC(C)=O)(Nc1ccc(F)cc1)C(F)(F)F (centres undefined)	GI50	28.8 µM (inactive)
Cc1cn(C2CC(n3cc(Cn4cc(Br)c(=O)[nH]c4=O)nn3)C(CO)O2)c(=O)[nH]c1=O (centres undefined)	GI50	> 100 µM (inactive)
Cc1ccc(Oc2cc(C)ccc2P(=O)(O)O)cc1	GI50	> 100 µM (inactive)
CCN(C(=N)C#N)c1ccccc1	GI50	20.5 µM (inactive)
O=C1/C(=C/c2ccccc2S)N=C(c2ccccc2)N1c1nc2ccc(Sc3ccccc3)cc2[nH]1	GI50	29.9 µM (inactive)
CC/C(C)=C1\OC(=O)C(C)C(O)C(Cc2cccnc2)NC(=O)C(NC(=O)c2ncccc2O)C(C)OC1=O (centres undefined)	GI50	> 100 µM (inactive)
Cc1ccc(C)c(COCCOCn2cc(N3CCOCC3)c(=O)[nH]c2=O)c1	GI50	> 100 µM (inactive)
COc1cc(/C=C/C=C2\CC(C)C/C(=C\C=C\c3ccc(O)c(OC)c3)C2=O)ccc1O (centres undefined)	GI50	12.7 µM (inactive)
CCOC(=O)N1C/C(=C\c2ccc(N(C)C)cc2)C(=O)/C(=C/c2ccc(N(C)C)cc2)C1	GI50	> 100 µM (inactive)
N#CN1CCC=C(c2cc3ccccc3[nH]2)C1	GI50	414 µM (inactive)
COc1cc(-c2ccc(/N=N/c3ccc4c(S(=O)(=O)O)cc(S(=O)(=O)O)c(N)c4c3O)c(OC)c2)ccc1/N=N/c1ccc2c(S(=O)(=O)O)cc(S(=O)(=O)O)c(N)c2c1O	GI50	> 100 µM (inactive)
C=CC[C@@H]1C(=O)[C@@]2(O[Si](C(C)C)(C(C)C)C(C)C)CC[C@@H]1C[C@H]2NC(=O)OCC(Cl)(Cl)Cl	GI50	> 100 µM (inactive)
CC(C)(C)C1(c2ccc(C3(c4ccccc4)Oc4ccccc4S3)[nH]2)Oc2ccccc2S1 (centres undefined)	GI50	> 100 µM (inactive)
Nc1nc(Cl)c(CO)c(NCC2(CO)CCC2)n1	GI50	> 100 µM (inactive)
COc1cc(Br)cc2c1O[C@H]1C(=O)CC3CC21CCN3C (some centres undefined)	GI50	30.5 µM (inactive)
COc1cc2c(cc1OC)C1Cc3sccc3CN1CC2 (centres undefined)	GI50	> 100 µM (inactive)
CC(C)(C)[Si](C)(C)OCC1OC(n2ccc(=O)[nH]c2=O)C(O[Si](C)(C)C(C)(C)C)/C1=N/O (centres undefined)	GI50	4.38 µM (inactive)
Cc1cc(N(CCC#N)CCC#N)ccc1/N=N/c1ccc([N+](=O)[O-])cc1	GI50	> 10 µM (inactive)
COc1ccc(/C=N/CCC/N=C/c2ccc(OC)cc2O)c(O)c1	GI50	57.9 µM (inactive)
O=c1c(Cc2ccc(Cc3c(O)oc4ccccc4c3=O)cc2)c(O)oc2ccccc12	GI50	> 100 µM (inactive)
Cc1oc2c(C)c3oc(=O)cc(C)c3cc2c1CN1C(=O)C2OCCOCCOCCOCCOCCO[C@H]2C1=O (some centres undefined)	GI50	> 100 µM (inactive)
COc1c2ccoc2c(OC)c2oc(=O)ccc12	GI50	> 100 µM (inactive)
CC(C)NC1(C(N)=O)CCN(Cc2ccccc2)CC1	GI50	> 100 µM (inactive)
COc1ccc(N(CN2C(=O)CCC2C(=O)O)C(C)=O)cc1 (centres undefined)	GI50	> 100 µM (inactive)
NC(=S)NS(=O)(=O)c1ccc(F)cc1	GI50	> 100 µM (inactive)
COc1ccccc1N1C(=O)C2C3c4ccccc4C(OC(C)=O)(c4ccccc43)C2C1=O (centres undefined)	GI50	> 100 µM (inactive)
O=C1C(Cl)N(c2ccc(Cl)cc2Cl)C1c1c[nH]c2ccccc12 (centres undefined)	GI50	> 100 µM (inactive)
C#CCC[C@@H]1O[C@@]1(C)CC/C=C(\C)CC/C=C/C=O	GI50	23.3 µM (inactive)
NC1(C(=O)O)CCC(C(=O)O)CC1 (centres undefined)	GI50	> 100 µM (inactive)
CN(C)CCC1(C2=CCCC2)CC/C(=C\c2ccc3c(c2)OCO3)C1=O (centres undefined)	GI50	15.8 µM (inactive)

---

Examples of molecules with documented GI50 follow.
# Tested on: CAKI-1
# TEST DESCRIPTION: NCI tumour cell line growth inhibition, 48 h
Activity calls are given as the source filed them. Rule as the data show it: active = GI50 up to about 1.1 µM and inactive = higher.
REPORTED PROPERTY: GI50

>>> df
                                   molecule               result
0              Oc1ccccc1CNCc1nc2ccccc2[nH]1   69.3 µM (inactive)
1  CC1(C)OC(C(C)(C)O)C(C(C)(C)O)O1 (centres undefined)  > 100 µM (inactive)
2         CC(=O)CCn1[nH]c(=O)c(Cl)c(Cl)c1=O   14.3 µM (inactive)
3  Clc1cc(Cl)cc(C2ON=C(c3ccccc3)N2C23CC4CC(CC(C4)C2)C3)c1 (centres undefined)   > 10 µM (inactive)

Where do the numbers come from? From ChEMBL document CHEMBL1201862.
